meta.source: patent US20210139581A1

TARGET_DESC: human CD33 on primary human monocyte-derived dendritic cells (human, UniProt P20138 18-364)
Sequence (P20138 18-364): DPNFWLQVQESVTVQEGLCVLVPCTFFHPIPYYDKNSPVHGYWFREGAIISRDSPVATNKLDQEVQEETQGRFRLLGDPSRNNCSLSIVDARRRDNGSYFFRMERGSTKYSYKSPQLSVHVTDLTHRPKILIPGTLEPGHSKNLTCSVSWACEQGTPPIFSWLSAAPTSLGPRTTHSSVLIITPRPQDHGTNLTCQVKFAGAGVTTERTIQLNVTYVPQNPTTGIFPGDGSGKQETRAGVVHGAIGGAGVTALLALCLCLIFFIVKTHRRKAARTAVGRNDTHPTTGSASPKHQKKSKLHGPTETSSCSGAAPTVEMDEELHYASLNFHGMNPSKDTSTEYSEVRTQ
ASSAY_PROCEDURE: cell-based or functional assay
READOUT: Receptor downregulation (EC50) (nM)
The reply should contain only the number, in nM.

What does the record list as Receptor downregulation (EC50) for AB-H14 (antibody, V domains shown, Humanized variant of murine 2F5.1) VH: QVQLVQSGAEVKKPGASVKVSCKASGYTFTDYNLHWVRQAPGQGLEWIGFIYPSNGITGYAQKFQGRVTMTVDTSTSTVYMELSSLRSEDTAVYYCARSTVDYFDYWGQGTLVTVSS VL: DIQMTQSPSSLSASVGDRVTITCRASQSVSTSTYSYMHWYQQKPGKAPKLLIKYASNLESGVPSRFSGSGSGTDFTLTISSLQPEDFATYYCQHSWEIPLTFGQGTKLEIK ?
0.042

Which Receptor downregulation (EC50) value is on record for AB-H66 (antibody, V domains shown, Humanized variant of murine 2F5.1) VH: QVQLVQSGAEVKKPGASVKISCKASGYTFTDYNLHWVRQAPGQGLEWIGFIYPSNGITGYAQKFQGRATLTVDTSTSTAYMELSSLRSEDTAVYYCARSTVDYFDYWGQGTTVTVSS VL: DIVLTQSPDSLAVSLGERATINCRASQSVSTSTYSYMHWYQQKPGQPPKLLIKYASNLESGVPDRFSGSGSGTDFTLTISSLQAEDVAVYYCQHSWEIPLTFGQGTKLEIK ?
0.0393

// Receptor downregulation (EC50) lookup, key: AB-H9 (antibody, V domains shown, Humanized variant of murine 2F5.1) VH: QVQLVQSGAELKKPGASVKVSCKASGYTFTDYNLHWVRQAPGQRLEWIGFIYPSNGITGYSQKFQGKATLTVDTSASTAYMELSSLRSEDTAVYYCARSTVDYFDYWGQGTTVTVSS VL: DIQMTQSPSSLSASVGDRVTITCRASQSVSTSTYSYMHWYQQKPGKAPKLLIYYASNLESGVPSRFSGSGSGTDFTLTISSLQPEDFATYYCQHSWEIPLTFGQGTKLEIK
0.0234

What does the record list as Receptor downregulation (EC50) for Chimeric Ab (antibody, V domains shown, Chimeric antibody with the variable regions of murine 2F5.1; also called parental antibody; comparator antibody) VH: EVQLQQSGPELVKPGASVKISCKASGYTFTDYNLHWVKLSHGKSLEWIGFIYPSNGITGYNQKFKNKATLTVDNSSSTAYMELRSLTSEDSAVYYCARSTVDYFDYWGQGTTLTVSS VL: DIVLTQSPASLAVSLGQRATMSCRASQSVSTSTYSYMHWYQQKPGQPPKLLIKYASNLESGVPARFSGSGSGTDFTLNIHPVEEEDTATYYCQHSWEIPLTFGAGTKLELK ?
0.0743

Which Receptor downregulation (EC50) is reported for this binder? AB-H15 (antibody, V domains shown, Humanized variant of murine 2F5.1) VH: QVQLVQSGAEVKKPGASVKISCKASGYTFTDYNLHWVRQAPGQGLEWIGFIYPSNGITGYAQKFQGRATLTVDTSTSTAYMELSSLRSEDTAVYYCARSTVDYFDYWGQGTLLTVSS VL: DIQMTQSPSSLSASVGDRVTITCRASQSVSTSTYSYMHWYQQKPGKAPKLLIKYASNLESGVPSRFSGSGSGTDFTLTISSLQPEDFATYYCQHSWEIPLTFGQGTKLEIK
0.0586

Find the recorded Receptor downregulation (EC50) belonging to AB-H65 (antibody, V domains shown, Humanized variant of murine 2F5.1) VH: QVQLVQSGAEVKKPGASVKVSCKASGYTFTDYNLHWVRQAPGQGLEWMGFIYPSNGITGYAQKFQGRVTMTRDTSTSTVYMELSSLRSEDTAVYYCARSTVDYFDYWGQGTTVTVSS VL: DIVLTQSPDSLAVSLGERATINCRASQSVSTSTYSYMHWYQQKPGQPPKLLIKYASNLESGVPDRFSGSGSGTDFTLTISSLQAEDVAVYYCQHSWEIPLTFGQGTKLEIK and report it.
0.0481
